Data provenance: paper PMC7180572

Listed below: MIC values for each entry.
system: M. avium ssp. avium CNCTC My 80/72 (ATCC 15769); test: 96 well plate microdilution broth method with Alamar Blue; assay type: cell-based; details: Mycobacterium avium, ATCC15769; Middlebrook 7H9 broth pH 6.6; read-out: MIC Mycobacterium avium

MOLECULE: CCCCCCNc1cnc(C(=O)Nc2ccc(Cl)cc2O)cn1 [Compound 6d]
MIC: > 100 µg/mL
//
MOLECULE: CCCCCCCNc1cnc(C(=O)Nc2ccc(Cl)cc2O)cn1 [Compound 6e]
MIC: > 100 µg/mL
//
MOLECULE: NNC(=O)c1ccncc1 [INH, isoniazid, reference compound]
MIC: 25 µg/mL
//
MOLECULE: CCCCCNc1cnc(C(=O)Nc2ccc(Cl)cc2O)cn1 [Compound 6c]
MIC: > 100 µg/mL
//
MOLECULE: CCCCCCCCNc1cnc(C(=O)Nc2ccc(O)cc2)cn1 [Compound 3f]
MIC: > 100 µg/mL

---

Listed below: MIC values for each entry.
test system: Escherichia coli ATCC 25922, CCM 3954; assay: Antibacterial microdilution broth method (EUCAST); format: cell-based; settings: 24 h, read-out: MIC EC

MOLECULE: CCCCNc1cnc(C(=O)Nc2ccc(C)cc2)cn1 [Compound 4b]
MIC: > 125 µM
--
MOLECULE: CCCCCCCNc1cnc(C(=O)Nc2ccc(C)cc2)cn1 [Compound 4e]
MIC: > 500 µM
--
MOLECULE: CCCCCCNc1cnc(C(=O)Nc2ccc(CC)cc2)cn1 [Compound 5d]
MIC: > 500 µM
--
MOLECULE: CCCNc1cnc(C(=O)Nc2cccc(O)c2)cn1 [Compound 2a]
MIC: > 125 µM
--
MOLECULE: CCCCNc1cnc(C(=O)Nc2cccc(O)c2)cn1 [Compound 2b]
MIC: > 500 µM
--
MOLECULE: CCCNc1cnc(C(=O)Nc2ccc(O)cc2)cn1 [Compound 3a]
MIC: > 500 µM

---

Listed below: MIC values for each entry.
test system: Aspergillus fumigatus ATCC 204305; test: Antifungal microdilution broth method (EUCAST); type: cell-based; details: ATCC204305, 48 h, read-out: MIC AF

COMPOUND_STRUCTURE: CCCCNc1cnc(C(=O)Nc2ccc(C)cc2)cn1
MIC: > 125 µM
//
COMPOUND_STRUCTURE: CCCCCCNc1cnc(C(=O)Nc2ccc(C)cc2)cn1
MIC: > 125 µM
//
COMPOUND_STRUCTURE: CCCCCCNc1cnc(C(=O)Nc2ccc(O)cc2)cn1
MIC: > 500 µM
//
COMPOUND_STRUCTURE: CCCNc1cnc(C(=O)Nc2cccc(C(F)(F)F)c2)cn1
MIC: > 125 µM
//
COMPOUND_STRUCTURE: CCCCCCCCNc1cnc(C(=O)Nc2ccc(C)cc2)cn1
MIC: > 125 µM
//
COMPOUND_STRUCTURE: CCCCCCCNc1cnc(C(=O)Nc2ccc(CC)cc2)cn1
MIC: > 125 µM

---

tested on: HepG2 cells; assay: HepG2 cytotoxicity, CellTiter 96 (MTS) assay; format: cell-based, human; conditions: IC50 (HepG2)/MIC against Mtb H37Ra (in µM)
Listed below: SI, selectivity index values for each entry.

COMPOUND_STRUCTURE: CCCCNc1cnc(C(=O)Nc2ccc(O)cc2)cn1
TARGET: HepG2 cells
MODIFIER: =
SI, selectivity index: 3.46

COMPOUND_STRUCTURE: CCCCCCCNc1cnc(C(=O)Nc2ccc(C)cc2)cn1
TARGET: HepG2 cells
MODIFIER: >
SI, selectivity index: 20.91

COMPOUND_STRUCTURE: CCCCCNc1cnc(C(=O)Nc2cccc(C(F)(F)F)c2)cn1
TARGET: HepG2 cells
MODIFIER: =
SI, selectivity index: 2.13

COMPOUND_STRUCTURE: O=C(Nc1ccc(O)cc1)c1cnc(Cl)cn1
TARGET: HepG2 cells
MODIFIER: =
SI, selectivity index: 1.40

COMPOUND_STRUCTURE: CCCCCCNc1cnc(C(=O)Nc2ccc(O)cc2)cn1
TARGET: HepG2 cells
MODIFIER: =
SI, selectivity index: 4.71

COMPOUND_STRUCTURE: CCCCCCNc1cnc(C(=O)Nc2ccc(Cl)cc2O)cn1
TARGET: HepG2 cells
MODIFIER: >
SI, selectivity index: 5.27

COMPOUND_STRUCTURE: CCCCCCCCNc1cnc(C(=O)Nc2ccc(O)cc2)cn1
TARGET: HepG2 cells
MODIFIER: =
SI, selectivity index: 6.6

COMPOUND_STRUCTURE: CCCCNc1cnc(C(=O)Nc2cccc(O)c2)cn1
TARGET: HepG2 cells
MODIFIER: >
SI, selectivity index: 0.92

COMPOUND_STRUCTURE: CCCNc1cnc(C(=O)Nc2ccc(O)cc2)cn1
TARGET: HepG2 cells
MODIFIER: =
SI, selectivity index: 7.18
